Data provenance is patent US20240368668A1.

# target_of_assay: mouse ADAMTS7 (Mus musculus, UniProt Q68SA9, E373Q)
# Construct: Full-length mouse Adamts7 1-1857 (Uniprot Q68SA9, WT or E373Q catalytic mutant); expressed in transfected cells; host or cells: Human Coronary Artery Smooth Muscle Cells (HCA-SMC, Lonza), adenovirus 50 MOI
# Sequence (Q68SA9 221-1657 E373Q): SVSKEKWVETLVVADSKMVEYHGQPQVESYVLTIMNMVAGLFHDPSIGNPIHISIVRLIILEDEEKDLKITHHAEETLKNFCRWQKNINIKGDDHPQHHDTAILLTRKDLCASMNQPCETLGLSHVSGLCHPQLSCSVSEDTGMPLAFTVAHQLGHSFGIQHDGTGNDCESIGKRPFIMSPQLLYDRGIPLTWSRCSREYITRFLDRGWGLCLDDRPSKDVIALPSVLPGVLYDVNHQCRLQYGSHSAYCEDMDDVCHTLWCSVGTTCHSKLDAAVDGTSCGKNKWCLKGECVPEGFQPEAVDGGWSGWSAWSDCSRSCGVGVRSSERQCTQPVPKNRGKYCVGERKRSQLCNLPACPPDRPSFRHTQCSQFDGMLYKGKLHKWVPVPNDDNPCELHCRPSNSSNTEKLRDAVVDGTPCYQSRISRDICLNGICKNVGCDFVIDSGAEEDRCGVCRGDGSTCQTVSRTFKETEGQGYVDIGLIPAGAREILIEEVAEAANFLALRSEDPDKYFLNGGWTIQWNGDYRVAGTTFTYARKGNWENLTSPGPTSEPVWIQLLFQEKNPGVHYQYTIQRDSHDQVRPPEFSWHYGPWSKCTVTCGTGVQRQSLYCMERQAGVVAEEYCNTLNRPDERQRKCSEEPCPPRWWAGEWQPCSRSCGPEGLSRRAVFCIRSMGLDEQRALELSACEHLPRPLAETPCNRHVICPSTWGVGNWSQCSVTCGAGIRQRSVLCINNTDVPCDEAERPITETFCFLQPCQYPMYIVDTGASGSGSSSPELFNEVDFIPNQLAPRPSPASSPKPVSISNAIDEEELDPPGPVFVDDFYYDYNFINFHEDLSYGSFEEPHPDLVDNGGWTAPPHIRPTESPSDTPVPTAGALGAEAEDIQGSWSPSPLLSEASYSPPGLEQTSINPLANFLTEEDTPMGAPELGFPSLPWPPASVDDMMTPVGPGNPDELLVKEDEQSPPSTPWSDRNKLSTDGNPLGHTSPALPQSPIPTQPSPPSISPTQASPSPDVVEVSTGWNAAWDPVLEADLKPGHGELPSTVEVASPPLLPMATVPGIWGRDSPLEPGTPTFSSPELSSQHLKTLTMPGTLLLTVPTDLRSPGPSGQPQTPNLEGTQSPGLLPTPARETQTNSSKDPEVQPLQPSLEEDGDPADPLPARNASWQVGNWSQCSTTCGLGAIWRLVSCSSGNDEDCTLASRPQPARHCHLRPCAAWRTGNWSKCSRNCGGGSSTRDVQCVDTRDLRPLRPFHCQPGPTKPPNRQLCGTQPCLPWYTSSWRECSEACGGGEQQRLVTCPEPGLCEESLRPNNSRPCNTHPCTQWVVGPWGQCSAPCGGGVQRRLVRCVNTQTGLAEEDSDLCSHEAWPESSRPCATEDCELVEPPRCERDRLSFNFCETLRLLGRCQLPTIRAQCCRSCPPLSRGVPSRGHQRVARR
# protocol: TMT10 TAILS N-terminomics, SMC1 experiment (Ad-mADAMTS7 WT vs EQ vs Luc, technical replicates, trypsin digest)
# Type: cell-based
# measurement_context: TAILS neo-N-terminal peptide abundance; log fold change, Ad-mADAMTS7 EQ over Luc
measured_metric: logFC.mEQ.over.Luc

substance | target_of_assay | measured_metric | assay_result
FBN1_29 (LEAGNVKETR; listed as Homo sapiens) | mouse ADAMTS7 (Mus musculus, UniProt Q68SA9, E373Q) | logFC.mEQ.over.Luc | 0.21

I. COL1A2_681 (VGAPGPAGATGDR; listed as Homo sapiens)
II. NUCB1_389 (LQQAVLHMEQR; listed as Homo sapiens)
III. LTBP2_1560 (TTYTECCCQDGEAWSQQCALCPPR; listed as Homo sapiens)
IV. NUCB1_228 (LKEVWEELDGLDPNR; listed as Homo sapiens)
V. HSPG2_2331 (ANLAYPAGSTQPIR; listed as Homo sapiens)
Order field: logFC.mEQ.over.Luc | Direction: descending (largest first) Answer format: list of labels, ordered as asked.
III, II, IV, V, I
(III: 0.23, II: 0.15, IV: 0.07, V: 0.03, I: −0.34)
